Target: cGMP PDE5 (UniProt O76074)
parameter: IC50

| test smiles | result |
| --- | --- |
| CCCOc1ncc(I)cc1-c1nc2c(CC)nn(CC(=O)OC(C)(C)C)c2c(=O)[nH]1 | 7 nM |

Consider the molecule shown here: CCCCOc1ncc(C(C)=O)cc1-c1nc2c(CC)n(C3CCNCC3)nc2c(=O)[nH]1 What is its recorded IC50?
18 nM

One more molecule: CCCOc1ncc(NC(=O)CC(=O)O)cc1-c1nc2c(CCC)nn(C)c2c(=O)[nH]1
1.6 nM

---

# Lookup of reported melting point keyed by entry

Example cases with answers are listed next.
| compound | result |
| --- | --- |
| C#Cc1cnc(OCCC)c(-c2nc3c(CC)nn(CCN4CCOCC4)c3c(=O)[nH]2)c1 [Example 107] | 137 to 139 °C |
| CCCCOc1ncc(C(C)=O)cc1-c1nc2c(CC)n(C3CCN(C(C)=O)CC3)nc2c(=O)[nH]1 [Example 131] | 156 to 157 °C |
| CCCOc1ncc(C#N)cc1-c1nc2c(CCC)nn(C)c2c(=O)[nH]1 [Example 70] | 174 to 176 °C |

Consider the compound shown here: CCCOc1ncc(N(C)C)cc1-c1nc2c(CCC)nn(C)c2c(=O)[nH]1 [Example 93] What is its recorded melting point?
162 to 162.5 °C

One more compound: CCCCOc1ncc(C(C)=O)cc1-c1nc2c(CC)n(C3CCN(C(=O)OC(C)(C)C)CC3)nc2c(=O)[nH]1 [Example 129]
194 to 195 °C

One more compound: CCCOc1ncc(C(C)=O)cc1-c1nc2c(CC)nn(CCN3CCOCC3)c2c(=O)[nH]1 [Example 113]
140 to 143 °C

One more compound: CCCCOc1ncc(C(C)=O)cc1-c1nc2c(CC)n(CC3CC3)nc2c(=O)[nH]1 [Example 127]
184 to 185 °C

One more compound: CCCc1nn(C)c2c(=O)[nH]c(-c3cc(N)cnc3OC3CCC3)nc12 [Example 90]
185 to 185.5 °C
